molecular target: human PPARalpha (Homo sapiens, UniProt Q07869); construct: human PPARalpha receptor (amino acids S167-Y468); test: Cellular PPARalpha assay (stably transfected HEK PPARalpha reporter cell line, luciferase); conditions: GR-GAL4-humanPPARalpha-LBD, luciferase readout
Sequence (Q07869 167-468): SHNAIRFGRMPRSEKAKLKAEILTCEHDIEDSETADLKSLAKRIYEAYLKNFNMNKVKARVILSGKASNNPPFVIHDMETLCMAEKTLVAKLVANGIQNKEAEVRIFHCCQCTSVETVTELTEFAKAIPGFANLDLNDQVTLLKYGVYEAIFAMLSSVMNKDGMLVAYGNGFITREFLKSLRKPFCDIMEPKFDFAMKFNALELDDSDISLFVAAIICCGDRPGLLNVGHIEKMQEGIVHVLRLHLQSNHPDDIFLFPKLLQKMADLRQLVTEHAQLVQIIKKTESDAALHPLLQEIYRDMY
pEC50: −log10 of the molar value.
reportedMetric: pEC50

The examples below pair each entry with its known result.
compound	valueReported
Cc1cccc(-c2nc(CO[C@H]3CCC[C@@H](OCCOc4cc(C(F)(F)F)sc4C(=O)O)C3)c(C)o2)c1 [Example XXIII]	6.65
CCc1ccc2c(c1)cc(C(=O)O)n2CCO[C@@H]1CCC[C@H](OCc2nc(-c3cccc(C)c3)oc2C)C1 [Example VII]	6.33

P: Cc1cccc(-c2nc(CO[C@H]3CCC[C@@H](OCCCNS(=O)(=O)C(F)(F)F)C3)c(C)o2)c1 [Example II]
Q: Cc1cccc(-c2nc(CO[C@H]3CCC[C@@H](OCCOc4ccccc4C(=O)O)C3)c(C)o2)c1 [Example XV]
Would you let me know which has the greater pEC50 value, P or Q ? Response format: the label of the selected entry.
P
